- target or test system: CAL-PDZ domain (UniProt Q9HD26 286-370)
- protocol text: fluorescence anisotropy, FITC-labeled peptide, in the presence of 2 mM tris(carboxylethyl)phosphine
No end group written: not given here. *: point of attachment. FITC = O=C1OC2(c3ccc(O)cc3Oc3cc(O)ccc32)c2ccc(NC(=S)*)cc21
reported endpoint: Kd (nM)
The answer is to be given in nM; state only the numeric part.

Query: I'd like to know its Kd. The binder in question is {FITC}-CRRRRFWQCTRV (also: disulfide reduced by TCEP (free thiols), As assayed in the presence of 2 mM tris(carboxylethyl)phosphine) [peptide 8 (Table 10, CAL-PDZ inhibitor), reduced linear form]
Result: 489
